Molecular target: T1, full-length Ubl4a (residues 1–157), recombinant (Homo sapiens, UniProt P11441 1-157)
T1 construct: Ubl4a, Homo sapiens, residues 1-157; also called Ubl4a(1–157); full-length Ubl4a wild type; source: recombinant
T1 sequence (looked up): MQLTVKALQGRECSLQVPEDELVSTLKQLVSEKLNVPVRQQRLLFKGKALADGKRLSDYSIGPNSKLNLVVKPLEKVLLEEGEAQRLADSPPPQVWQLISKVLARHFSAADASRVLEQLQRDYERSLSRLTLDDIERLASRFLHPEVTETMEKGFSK
Experiment: SPR; BAGS domain (residues 1048-1123) immobilised on a CM5 chip by amine coupling; wild-type and mutant Ubl4a as analytes; 298 K; HBS-P (10 mM HEPES, 150 mM NaCl, 0.05% Surfactant P20, pH 7.2); 30 μl/min; two-state reaction model, overall dissociation constant
Conditions: both partners purified
Metric Name: pKd
// field semantics: pKd = negative decimal log of concentration (mol/L)

Task item: Answer with the recorded pKd of BAG6 BAGS domain (residues 1048–1123) (domain or fragment, human, UniProt P46379-2 1048-1123, looked up, BAG6, C-terminal BAGS domain, residues 1048-1123; printed length of BAG6 1,126 residues; Removal of GST is told for the crystallised complex; also called BAG6(1048–1123)) MQGEGPQLLLSEAVSRAAKAAGARPLTSPESLSRDLEAPEVQESYRQQLRSDIQKRLQEDPNYSPQRFPNAQRAFA only.
Reply: 8.66
